assay: Permeability of the compound by PAMPA; assay type: ADME; settings: read-out: permeability
measured-attribute: Papp (nm/s)
// note: answer is a bare numeric in nm/s

Returns the measured Papp for the input molecule. Input: [2H]C([2H])([2H])c1nnn(C)c1-c1cc2c(cc1F)c1ncc(C(C)(C)O)cc1n2[C@H](c1ccccc1)C1CCOCC1
840

Then what about the molecule [2H]C([2H])([2H])c1nnn(C)c1-c1cc2c(cc1F)c1ncc(C(C)(C)O)cc1n2[C@H](c1ncccc1F)C1CCOCC1 ?
550

And the next one, [2H]C([2H])([2H])c1nnn(C)c1-c1cc2c(cc1F)c1ncc(C(C)(C)O)cc1n2[C@H](c1cc(C)on1)C1CCOCC1 ?
300

This collection of values is drawn from ChEMBL document CHEMBL5029166.
